Test: Lipophilicity, log D of compound in 1-octanol at pH 7.4 incubated for 4 hrs by HPLC-UV analysis
Assay type: physicochemical
Details: 1-octanol / aqueous phase at pH 7.4, pH 7.4
One threshold, 3, splits the recorded logD at 4 h values: lower ones are MET, equal or higher ones are NOT MET.

Query: Find out if reported logD at 4 h for C=CC(=O)N(c1ccc(O[C@@H]2CC[C@@H](NC(=O)N[C@@H]3CCS(=O)(=O)C3)C2)c(F)c1)[C@@H](CC(C)(C)O)c1ccc(Cl)cc1 is less than 3
Response: NOT MET

Query: Find out if reported logD at 4 h for C=CC(=O)N(c1ccc(O[C@@H]2CC[C@@H](NC(=O)N[C@@H]3CCS(=O)(=O)C3)C2)c(F)c1)[C@@H](C)c1ccc(C(F)(F)F)c(C#N)c1 is less than 3
Response: NOT MET

Query: Find out if reported logD at 4 h for C=CC(=O)N(c1ccc(O[C@@H]2CC[C@@H](NC(=O)N[C@@H]3CCS(=O)(=O)C3)C2)c(F)c1)[C@@H](C)c1ccc(Cl)cc1 is less than 3
Response: NOT MET

Query: Find out if reported logD at 4 h for C=CC(=O)N(c1ccc(O[C@@H]2CC[C@@H](NC(=O)N[C@@H]3CCS(=O)(=O)C3)C2)c(Cl)c1)[C@@H](C)c1ccc(Cl)cc1 is less than 3
Response: NOT MET

Query: Find out if reported logD at 4 h for C=CC(=O)N(c1ccc(O[C@@H]2CC[C@@H](NC(=O)NCC(C)(C)N(C)C)C2)c(F)c1)[C@@H](C)c1ccc(Cl)cc1 is less than 3
Response: MET

Query: Find out if reported logD at 4 h for C[C@@H](c1ccc(Cl)cc1)N(C(=O)/C=C/CN(C)C)c1ccc(O[C@@H]2CC[C@@H](NC(=O)N[C@@H]3CCS(=O)(=O)C3)C2)c(F)c1 is less than 3
Response: MET

Query: Find out if reported logD at 4 h for C=CC(=O)N(c1cc(F)c(O[C@@H]2CC[C@@H](N)C2)cc1C)[C@@H](C)c1ccc(Cl)cc1 is less than 3
Response: MET

###

Target: BCL2A1/BID (Homo sapiens)
Sequence (Q16548 whole entry): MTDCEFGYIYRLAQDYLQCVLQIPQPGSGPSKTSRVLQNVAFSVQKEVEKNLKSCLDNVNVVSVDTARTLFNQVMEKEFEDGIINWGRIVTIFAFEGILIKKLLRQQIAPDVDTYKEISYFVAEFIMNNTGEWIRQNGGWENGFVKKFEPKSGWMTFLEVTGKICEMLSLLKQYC
Sequence (P55957 whole entry): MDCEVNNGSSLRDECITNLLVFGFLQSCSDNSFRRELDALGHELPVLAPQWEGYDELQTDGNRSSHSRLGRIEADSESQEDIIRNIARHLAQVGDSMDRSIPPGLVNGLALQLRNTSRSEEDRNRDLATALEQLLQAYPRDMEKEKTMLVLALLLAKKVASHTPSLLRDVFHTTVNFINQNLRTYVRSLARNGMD
Assay: Inhibition of BFL-1/ BH3 (unknown origin) interaction incubated for 2 hrs by TR-FRET assay
Format: protein assay
Assignment: determine reported IC50 for the given compounds.
Your answer should be a plain number; it is taken to be in nM.

Query: Given the entry C=CC(=O)N(c1ccc(O[C@@H]2CC[C@@H](NC(=O)N[C@@H]3CCS(=O)(=O)C3)C2)c(F)c1)[C@@H](C)c1ccc(C(F)(F)F)c(C#N)c1 , report its measured IC50.
Response: 87

Query: Given the entry C=CC(=O)N(c1ccc(O[C@@H]2CC[C@@H](NC(=O)N[C@@H]3CCS(=O)(=O)C3)C2)c(F)c1)[C@@H](CC(C)(C)O)c1ccc(Cl)cc1 , report its measured IC50.
Response: 4.2

Query: Given the entry C=CC(=O)N(c1ccc(O[C@@H]2CC[C@@H](N)C2)cc1)[C@@H](CNS(C)(=O)=O)c1ccc(Cl)cc1 , report its measured IC50.
Response: 31

Query: Given the entry C=CC(=O)N(c1ccc(O[C@@H]2CC[C@@H](N)C2)cc1OC)[C@@H](C)c1ccc(Cl)cc1 , report its measured IC50.
Response: 880

Query: Given the entry C=CC(=O)N(c1ccc(O[C@@H]2CC[C@@H](NC(=O)N[C@H]3CCNC3)C2)cc1)[C@@H](C)c1ccc(Cl)cc1 , report its measured IC50.
Response: 29

Query: Given the entry C=CC(=O)N(c1ccc(O[C@@H]2CC[C@@H](N)C2)cc1)[C@H](c1ccc(Cl)cc1)c1cncnc1 , report its measured IC50.
Response: 33

Query: Given the entry C=CC(=O)N(c1ccc(O[C@@H]2CC[C@@H](NC(=O)NC3CCS(=O)(=O)C3)C2)cc1)[C@@H](C)c1ccc(Cl)cc1 (mixture of isomers) , report its measured IC50.
Response: 40

Query: Given the entry C=CC(=O)N(c1ccc(O[C@@H]2CC[C@@H](N)C2)cc1F)[C@@H](C)c1ccc(Cl)cc1 , report its measured IC50.
Response: 48

Query: Given the entry C[C@@H](c1ccc(Cl)cc1)N(C(=O)/C=C/CN(C)C)c1ccc(O[C@@H]2CC[C@@H](N)C2)cc1 , report its measured IC50.
Response: 90

Query: Given the entry C=CC(=O)N(c1ccc(O[C@@H]2CC[C@@H](N)C2)cc1)[C@@H](CC(N)=O)c1ccc(Cl)cc1 , report its measured IC50.
Response: 43

Query: Given the entry C=CC(=O)N(c1ccc(O[C@@H]2CC[C@@H](NC(=O)NCCN(C)C)C2)cc1)[C@@H](C)c1ccc(Cl)cc1 , report its measured IC50.
Response: 50

Query: Given the entry CNS(=O)(=O)OCC(=O)N(Cc1ccc(Cl)cc1)c1ccc(O[C@@H]2CC[C@@H](N)C2)cc1 , report its measured IC50.
Response: 6500

Query: Given the entry C=CC(=O)N(c1ccc(O[C@@H]2CC[C@@H](N)C2)c(C)c1)[C@@H](C)c1ccc(Cl)cc1 , report its measured IC50.
Response: 77

Query: Given the entry C[C@@H](c1ccc(Cl)cc1)N(C(=O)/C=C/CN(C)C)c1ccc(O[C@@H]2CC[C@@H](NC(=O)N[C@@H]3CCS(=O)(=O)C3)C2)c(F)c1 , report its measured IC50.
Response: 8.5
